Value source: the Immune Epitope Database (IEDB)

SYSTEM TESTED: HLA-A*11:01
ASSAY SUMMARY: IEDB peptide-MHC binding, purified MHC/direct/fluorescence; filed as Kd, often an IC50 or EC50 that approximates it; bounds were set here for any values at or beyond the usual limits of such assays
PROTOCOL CONDITIONS: source organism: Brucella melitensis
MEASURED METRIC: pKd
Remember the convention: pKd equals -log10 of concentration in molar.

Determine reported pKd for SRIGAWASK ; test system: HLA-A*11:01.
5.91

###

SYSTEM TESTED: HLA-A*11:01
ASSAY SUMMARY: IEDB peptide-MHC binding, purified MHC/competitive/radioactivity; filed as Kd, often an IC50 or EC50 that approximates it; bounds were set here for any values at or beyond the usual limits of such assays
PROTOCOL CONDITIONS: source organism: Lassa virus Josiah
MEASURED METRIC: Kd (µM)
Value expressed in µM; do not type the unit.

For TLTNTSIINH , write its Kd.
15.4

###

Quick reference: Kd of the listed items.
SYSTEM TESTED: HLA-A*23:01
ASSAY SUMMARY: IEDB peptide-MHC binding, purified MHC/competitive/radioactivity; filed as Kd, often an IC50 or EC50 that approximates it; bounds were set here for any values at or beyond the usual limits of such assays
PROTOCOL CONDITIONS: source organism: SARS coronavirus Tor2

Use these answered entries as a reference point.
[
  {
    "SEQUENCE TEXT": "DEEPMELDY",
    "MEASURED METRIC": "Kd",
    "RESULT": "≥ 59 µM"
  },
  {
    "SEQUENCE TEXT": "DHEFVDEFY",
    "MEASURED METRIC": "Kd",
    "RESULT": "≥ 66.2 µM"
  },
  {
    "SEQUENCE TEXT": "VYIGDPAQL",
    "MEASURED METRIC": "Kd",
    "RESULT": "1.18 µM"
  },
  {
    "SEQUENCE TEXT": "DTVWEVQGY",
    "MEASURED METRIC": "Kd",
    "RESULT": "≥ 77.8 µM"
  },
  {
    "SEQUENCE TEXT": "GYLKPTTFML",
    "MEASURED METRIC": "Kd",
    "RESULT": "0.0336 µM"
  }
]

For EYADVFHLY , write its Kd.
0.176 µM

For QMYKTPTLKY , write its Kd.
≥ 70 µM

###

SYSTEM TESTED: HLA-A*69:01
ASSAY SUMMARY: IEDB peptide-MHC binding, purified MHC/direct/fluorescence; filed as Kd, often an IC50 or EC50 that approximates it; bounds were set here for any values at or beyond the usual limits of such assays
PROTOCOL CONDITIONS: source organism: Corynebacterium glutamicum
pKd: −log10 of the molar value.
MEASURED METRIC: pKd

For VLPVPGASV , write its pKd.
≤ 4.70

###

SYSTEM TESTED: HLA-A*03:01
ASSAY SUMMARY: IEDB peptide-MHC binding, purified MHC/direct/fluorescence; filed as Kd, often an IC50 or EC50 that approximates it; bounds were set here for any values at or beyond the usual limits of such assays
PROTOCOL CONDITIONS: source organism: SARS-CoV1
MEASURED METRIC: Kd (µM)
Value expressed in µM; do not type the unit.

For KLWAQCVQL , write its Kd.
2.86

###

SYSTEM TESTED: HLA-B*57:01
ASSAY SUMMARY: IEDB peptide-MHC binding, purified MHC/competitive/fluorescence; filed as Kd, often an IC50 or EC50 that approximates it; bounds were set here for any values at or beyond the usual limits of such assays
PROTOCOL CONDITIONS: source organism: Cryptosporidium parvum Iowa II
MEASURED METRIC: Kd

For KLGDITLFL , write its Kd.
≥ 20 µM

###

Quick reference: Kd of the listed items.
SYSTEM TESTED: HLA-B*18:01
ASSAY SUMMARY: IEDB peptide-MHC binding, purified MHC/competitive/radioactivity; filed as Kd, often an IC50 or EC50 that approximates it; bounds were set here for any values at or beyond the usual limits of such assays
PROTOCOL CONDITIONS: source organism: Mammarenavirus machupoense

Use these answered entries as a reference point.
[
  {
    "SEQUENCE TEXT": "RELLKSLSGL",
    "RESULT": "≥ 70.4 µM"
  },
  {
    "SEQUENCE TEXT": "EEPVPLLPLS",
    "RESULT": "≥ 52.4 µM"
  }
]

Now for the sequence whose Kd we want.
For TEQFLCYAL , write its Kd.
0.021 µM

###

SYSTEM TESTED: HLA-A*02:06
ASSAY SUMMARY: IEDB peptide-MHC binding, purified MHC/competitive/radioactivity; filed as Kd, often an IC50 or EC50 that approximates it; bounds were set here for any values at or beyond the usual limits of such assays
PROTOCOL CONDITIONS: source organism: SARS coronavirus Tor2
MEASURED METRIC: Kd (µM)
Value expressed in µM; do not type the unit.

Use these answered entries as a reference point.
[
  {
    "SEQUENCE TEXT": "LLVAAGMEA",
    "NUMERIC RESULT": 0.117
  },
  {
    "SEQUENCE TEXT": "KLWAQCVQL",
    "NUMERIC RESULT": 0.00947
  },
  {
    "SEQUENCE TEXT": "RILGAGCFV",
    "NUMERIC RESULT": 0.038
  },
  {
    "SEQUENCE TEXT": "LIVAALVFL",
    "NUMERIC RESULT": 0.0105
  },
  {
    "SEQUENCE TEXT": "LMGHFSWWTA",
    "NUMERIC RESULT": 0.0974
  }
]

For LVFLILCFT , write its Kd.
1.37

For FLWLLWPVTL , write its Kd.
0.0284

For ILFLTLIVFT , write its Kd.
0.703

###

SYSTEM TESTED: HLA-B*73:01
ASSAY SUMMARY: IEDB peptide-MHC binding, purified MHC/competitive/fluorescence; filed as Kd, often an IC50 or EC50 that approximates it; bounds were set here for any values at or beyond the usual limits of such assays
PROTOCOL CONDITIONS: source organism: Salmonella enterica subsp. enterica serovar Typhimurium str. LT2
MEASURED METRIC: Kd (nM)
Value expressed in nM; do not type the unit.

For WRLYSPPPV , write its Kd.
118

###

SYSTEM TESTED: HLA-A*30:02
ASSAY SUMMARY: IEDB peptide-MHC binding, purified MHC/competitive/radioactivity; filed as Kd, often an IC50 or EC50 that approximates it; bounds were set here for any values at or beyond the usual limits of such assays
PROTOCOL CONDITIONS: source organism: Dengue virus 4 Philippines/H241/1956
Quick reference: Kd of the listed items.
Value expressed in nM; do not type the unit.

[
  {
    "SEQUENCE TEXT": "LALITVSGLY",
    "UNITS OF MEASURE": "nM",
    "NUMERIC RESULT": 5.26
  }
]

Now for the sequence whose Kd we want.
For RTPQDNQLIY , write its Kd.
198

###

SYSTEM TESTED: HLA-B*27:20
ASSAY SUMMARY: IEDB peptide-MHC binding, purified MHC/competitive/fluorescence; filed as Kd, often an IC50 or EC50 that approximates it; bounds were set here for any values at or beyond the usual limits of such assays
PROTOCOL CONDITIONS: source organism: Yersinia pestis Nepal516
MEASURED METRIC: Kd (nM)
Value expressed in nM; do not type the unit.

For YRYCHQLAL , write its Kd.
0.2

###

SYSTEM TESTED: HLA-B*40:01
ASSAY SUMMARY: IEDB peptide-MHC binding, purified MHC/direct/fluorescence; filed as Kd, often an IC50 or EC50 that approximates it; bounds were set here for any values at or beyond the usual limits of such assays
PROTOCOL CONDITIONS: source organism: Yersinia pestis
Quick reference: Kd of the listed items.

[
  {
    "SEQUENCE TEXT": "QWSPGPGRL",
    "SYSTEM TESTED": "HLA-B*40:01",
    "Kd": "≥ 20 µM"
  }
]

Now for the sequence whose Kd we want.
For YGLGSTPLY , write its Kd.
≥ 20 µM

###

SYSTEM TESTED: HLA-B*39:01
ASSAY SUMMARY: IEDB peptide-MHC binding, purified MHC/competitive/fluorescence; filed as Kd, often an IC50 or EC50 that approximates it; bounds were set here for any values at or beyond the usual limits of such assays
PROTOCOL CONDITIONS: source organism: Human immunodeficiency virus 1
MEASURED METRIC: Kd (µM)
Value expressed in µM; do not type the unit.

For EKLKSLFNTI , write its Kd.
0.641
